EXPERIMENTAL TARGET: recombinant human MMP-13 (Homo sapiens, UniProt P45452)
EXPERIMENTAL PROTOCOL: biochemical
CONDITION SET: Inhibition Table B; read-out: MMP-13 IC50
Counter-ions that a name gives are not always drawn.
Could you mark each record 1 if its IC50 falls strictly under 20 nM, and -1 if it equals or exceeds it?

compound="O=C(NO)C1(S(=O)(=O)c2ccc(-c3cccc(C(F)(F)F)c3)cc2)CCOCC1 [Example 219]" qualitative_label=1
compound="Nc1cc(C(F)(F)F)ccc1Sc1ccc(S(=O)(=O)C2(C(=O)NO)CCOCC2)cc1 [Example 61, Monohydrochloride]" qualitative_label=-1
compound="O=C(O)CNc1ccc(Oc2ccc(S(=O)(=O)C3(C(=O)NO)CCSCC3)cc2)cc1 [Example 117]" qualitative_label=1
compound="O=C(NO)C1(S(=O)(=O)c2ccc(OC3CCNCC3)cc2)CCOCC1 [Example 67, Monohydrochloride]" qualitative_label=-1
compound="O=C(NO)C1(S(=O)(=O)c2ccc(Sc3ccncc3)cc2)CCSCC1 [Example 119, Monohydrochloride]" qualitative_label=1
compound="C#CCN1CCC(C(=O)NO)(S(=O)(=O)c2ccc(Oc3ccc(C)c(C)c3)cc2)CC1.Cl [Example 43]" qualitative_label=1
compound="O=C(NO)C1(S(=O)(=O)c2ccc(Oc3cc(F)c(F)cc3F)cc2)CCOCC1 [Example 58]" qualitative_label=-1
compound="O=C(NO)C1(S(=O)(=O)c2ccc(Sc3ccc(F)cc3)cc2)CCOCC1 [Example 103]" qualitative_label=1
compound="C#CCN1CCC(C(=O)NO)(S(=O)(=O)c2ccc(Oc3ccc(OC)c(OC)c3)cc2)CC1 [Example 38, Monohydrochloride]" qualitative_label=-1
compound="O=C(NO)C1(S(=O)(=O)c2ccc(Oc3ccc(I)cc3)cc2)CCOCC1 [Example 57]" qualitative_label=1
compound="O=C(CS(=O)(=O)c1ccc(NC(=O)OCc2ccccc2)cc1)NO [Example 74]" qualitative_label=-1
compound="Cc1ccccc1-c1ccc(S(=O)(=O)C2(C(=O)NO)CCOCC2)cc1 [Example 225]" qualitative_label=-1
compound="NCC(=O)Nc1ccc(Sc2ccc(S(=O)(=O)C3(C(=O)NO)CCSCC3)cc2)cc1 [Example 118]" qualitative_label=1
compound="O=C(NO)C1(S(=O)(=O)c2ccc(Sc3ccc(Cl)c(Cl)c3)cc2)CCOCC1 [Example 60]" qualitative_label=-1
compound="Cc1nc2cc(Oc3ccc(S(=O)(=O)C4(C(=O)NO)CCOCC4)cc3)ccc2s1 [Example 121]" qualitative_label=1
compound="C=CCN1CCC(C(=O)NO)(S(=O)(=O)c2ccc(Oc3ccc(Cl)c(C)c3)cc2)CC1 [Example 82, Monohydrochloride]" qualitative_label=1

----------
EXPERIMENTAL TARGET: recombinant human MMP-2 (Homo sapiens)
EXPERIMENTAL PROTOCOL: biochemical
CONDITION SET: Inhibition Table B; read-out: MMP-2 IC50
pIC50: −log10 of the molar value. Counter-ions that a name gives are not always drawn.
# maps each entry to its pIC50
OUTCOME MEASURE: pIC50

compound="O=C(NO)C1(S(=O)(=O)c2ccc(Oc3ccccc3)cc2)CC[S+]([O-])CC1 (centres unmarked)" bound_sign== result_number=9.30
compound=O=C(NO)C1(S(=O)(=O)c2ccc(-c3ccsc3)cc2)CCOCC1 bound_sign=> result_number=9.00
compound=COc1ccc(Sc2ccc(S(=O)(=O)C3(C(=O)NO)CCSCC3)cc2)cc1 bound_sign== result_number=9.15
compound=O=C(CS(=O)(=O)c1ccc(NC(=O)OCc2ccccc2)cc1)NO bound_sign== result_number=6.89
compound=Nc1ccc(Sc2ccc(S(=O)(=O)C3(C(=O)NO)CCOCC3)cc2)cc1 bound_sign== result_number=9.40
compound=O=C(CS(=O)(=O)c1ccc(NC(=O)Nc2ccccc2)cc1)NO bound_sign== result_number=7.22
compound="Cc1cc(Oc2ccc(S(=O)(=O)C3(C(=O)NO)CCN(CC(=O)O)CC3)cc2)ccc1Cl [Example 80, Monohydrochloride]" bound_sign== result_number=10.00
compound=CCOC(=O)N1CCN(c2ccc(S(=O)(=O)C3(C(=O)NO)CCOCC3)cc2)CC1 bound_sign== result_number=7.95
compound=Cc1nc2cc(Oc3ccc(S(=O)(=O)C4(C(=O)NO)CCOCC4)cc3)ccc2s1 bound_sign=> result_number=10.00
compound=C#CCN1CCC(C(=O)NO)(S(=O)(=O)c2ccc(Oc3ccc(C)c(C)c3)cc2)CC1.Cl bound_sign== result_number=9.40
compound=CS(=O)(=O)N1CCC(C(=O)NO)(S(=O)(=O)c2ccc(Oc3ccc4c(c3)OCO4)cc2)CC1 bound_sign== result_number=9.70
compound="Cl.O=C(NO)C1(S(=O)(=O)c2ccc(Oc3ccc(-n4cncn4)cc3)cc2)CCS(=O)(=O)CC1 [Example 53, Monohydrochloride]" bound_sign== result_number=9.52
compound=O=C(NO)C1(S(=O)(=O)c2ccc(F)cc2)CCOCC1 bound_sign== result_number=5.34
compound=O=C(NO)C1(S(=O)(=O)c2ccc(-c3cccc4ccccc34)cc2)CCOCC1 bound_sign== result_number=7.74
compound=Cc1ccc(Oc2ccc(S(=O)(=O)C3(C(=O)NO)CCOCC3)cc2)cc1C bound_sign== result_number=9.70
compound="O=C(NO)C1(S(=O)(=O)c2ccc(Sc3ccccc3)cc2)CC[S+]([O-])CC1 (centres unmarked)" bound_sign== result_number=9.05
compound=COC(=O)CCc1ccc(Oc2ccc(S(=O)(=O)C3(C(=O)NO)CCOCC3)cc2)cc1 bound_sign=> result_number=10.00

----------
EXPERIMENTAL TARGET: recombinant human MMP-2 (Homo sapiens)
Sequence (P08253 110-660): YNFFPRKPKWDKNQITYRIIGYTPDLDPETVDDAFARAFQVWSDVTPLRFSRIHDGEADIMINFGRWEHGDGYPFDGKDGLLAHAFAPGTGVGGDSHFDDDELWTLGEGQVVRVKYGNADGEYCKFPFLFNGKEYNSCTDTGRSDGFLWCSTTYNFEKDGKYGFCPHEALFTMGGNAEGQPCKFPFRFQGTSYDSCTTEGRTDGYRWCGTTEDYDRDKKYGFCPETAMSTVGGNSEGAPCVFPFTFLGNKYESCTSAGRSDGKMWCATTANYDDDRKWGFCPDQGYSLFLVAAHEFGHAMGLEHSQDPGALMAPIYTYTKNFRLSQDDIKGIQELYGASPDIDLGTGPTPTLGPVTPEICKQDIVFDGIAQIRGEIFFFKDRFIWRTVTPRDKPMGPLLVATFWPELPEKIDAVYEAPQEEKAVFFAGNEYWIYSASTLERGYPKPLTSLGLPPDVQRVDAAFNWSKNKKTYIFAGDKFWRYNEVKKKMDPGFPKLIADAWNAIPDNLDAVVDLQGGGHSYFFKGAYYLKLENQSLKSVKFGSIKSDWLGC
EXPERIMENTAL PROTOCOL: biochemical
CONDITION SET: Inhibition Table B; read-out: MMP-2 IC50
pIC50: −log10 of the molar value. Counter-ions that a name gives are not always drawn.
Short version: pIC50 at least 9 is Condition met, less is Condition not met.

compound=CC1(C)OCC(C(=O)NO)(S(=O)(=O)c2ccc(Oc3ccccc3)cc2)CO1 qualitative_label="Condition met"
compound="O=C(C1CCc2ccccc2C1)N1CCN(c2ccc(S(=O)(=O)C3(C(=O)NO)CCOCC3)cc2)CC1 (stereo not shown)" qualitative_label="Condition not met"
compound="CN1CCC(C(=O)NO)(S(=O)(=O)c2ccc(Sc3ccccc3)cc2)CC1.Cl [Example 33, Monohydrochloride]" qualitative_label="Condition met"
compound=O=C(NO)C1(S(=O)(=O)c2ccc(Sc3ccccc3)cc2)CCS(=O)(=O)CC1 qualitative_label="Condition not met"
compound=Cc1cccc(Oc2ccc(S(=O)(=O)C3(C(=O)NO)CCOCC3)cc2)n1 qualitative_label="Condition not met"
compound="C#CCN1CCC(C(=O)NO)(S(=O)(=O)c2ccc(SC3CCCC3)cc2)CC1 [Example 45, Monohydrochloride]" qualitative_label="Condition not met"
compound=O=C(NCc1ccncc1)C1CCN(c2ccc(S(=O)(=O)C3(C(=O)NO)CCOCC3)cc2)CC1 qualitative_label="Condition not met"
compound="O=C(NO)C1(S(=O)(=O)c2ccc(OC3CCNCC3)cc2)CCOCC1 [Example 67, Monohydrochloride]" qualitative_label="Condition not met"
compound=O=C(NO)C1(S(=O)(=O)c2ccc(Oc3ccc(OCc4ccccc4)cc3)cc2)CCOCC1 qualitative_label="Condition met"
compound=Nc1cccc(-c2ccc(S(=O)(=O)C3(C(=O)NO)CCOCC3)cc2)c1 qualitative_label="Condition met"
compound=O=C(NO)C1(S(=O)(=O)c2ccc(Oc3ccc(F)c(Cl)c3)cc2)CCOCC1 qualitative_label="Condition met"
compound=O=C(NO)C1(S(=O)(=O)c2ccc(Oc3ccc(Cl)c(F)c3)cc2)CCOCC1 qualitative_label="Condition met"
compound="CNC(=O)C1CCCN(c2ccc(S(=O)(=O)C3(C(=O)NO)CCOCC3)cc2)C1 (stereo not shown)" qualitative_label="Condition not met"
compound="C#CCN1CCC(C(=O)NO)(S(=O)(=O)c2ccc(Oc3ccc(Cl)c(C)c3)cc2)CC1.Cl [Example 81, Monohydrochloride]" qualitative_label="Condition met"
compound="O=C(NOC1CCCCO1)C1(S(=O)(=O)c2ccc(F)cc2)CCOCC1 (stereo not shown)" qualitative_label="Condition met"
compound=CC(=O)N1CCN(c2ccc(Oc3ccc(S(=O)(=O)C4(C(=O)NO)CCSCC4)cc3)cc2)CC1 qualitative_label="Condition not met"
compound=CC(C)NC(=O)N1CCC(C(=O)NO)(S(=O)(=O)c2ccc(Oc3ccc(Cl)cc3)cc2)CC1 qualitative_label="Condition met"
compound=COc1ccccc1N1CCN(c2ccc(S(=O)(=O)C3(C(=O)NO)CCOCC3)cc2)CC1 qualitative_label="Condition not met"
compound=O=C(NO)C1(S(=O)(=O)c2ccc(-c3ccc4ccccc4c3)cc2)CCOCC1 qualitative_label="Condition met"
compound="COCCN1CCC(C(=O)NO)(S(=O)(=O)c2ccc(Sc3ccccc3)cc2)CC1 [Example 35, Monohydrochloride]" qualitative_label="Condition met"
compound="Cc1ccc(Oc2ccc(S(=O)(=O)C3(C(=O)NO)CCOCC3)cc2)cn1 [Example 97, Monohydrochloride]" qualitative_label="Condition not met"
compound="Cc1ccc(Oc2ccc(S(=O)(=O)C3(C(=O)NO)CN(C)CN(C)C3)cc2)cc1C [Example 78, Dihydrochloride]" qualitative_label="Condition not met"
compound="C#CCN1CCC(C(=O)NO)(S(=O)(=O)c2ccc(Oc3ccc(Cl)cc3)cc2)CC1 [Example 85, Monohydrochloride]" qualitative_label="Condition met"
compound=CC(=O)N1CCC(Oc2ccc(S(=O)(=O)C3(C(=O)NO)CCOCC3)cc2)CC1 qualitative_label="Condition not met"
compound="C#CCN1CCC(C(=O)NO)(S(=O)(=O)c2ccc(Oc3ccc(OC)c(OC)c3)cc2)CC1 [Example 38, Monohydrochloride]" qualitative_label="Condition not met"
